pIC50 values, listed per item
- Test system: Splenocyte
- procedureSummary: Immunomodulatory activity in BALB/c mouse splenocytes assessed as inhibition of concanavalin A-induced lymphocyte proliferation by measuring [3H]-thymidine uptake after 48 to 72 hrs by scintillation counting analysis
- Type: functional, cell-based
pIC50: −log10 of the molar value.

>  <molecule>
CC(/C=N/Nc1ccc([N+](=O)[O-])cc1)=N\NC(=O)c1ccccc1

>  <censoringSign>
<

>  <pIC50>
4.92

$$$$
>  <molecule>
CC(/C=N/Nc1ccc([N+](=O)[O-])cc1)=N\NC(=O)c1ccccc1Oc1ccccc1

>  <censoringSign>
<

>  <pIC50>
4.92

$$$$
>  <molecule>
CC(/C=N/Nc1ccc([N+](=O)[O-])cc1)=N\NC(=O)c1ccccc1F

>  <censoringSign>
<

>  <pIC50>
4.92

$$$$
>  <molecule>
C[C@@H]1C[C@H]2[C@@H]3CCC4=CC(=O)C=C[C@]4(C)[C@@]3(F)[C@@H](O)C[C@]2(C)[C@@]1(O)C(=O)CO [DEXAMETHASONE]

>  <censoringSign>
=

>  <pIC50>
9.00

$$$$
>  <molecule>
CC(/C=N/Nc1ccc([N+](=O)[O-])cc1)=N\NC(=O)c1ccccc1I

>  <censoringSign>
=

>  <pIC50>
5.53

$$$$
>  <molecule>
CC(/C=N/Nc1ccc([N+](=O)[O-])cc1)=N\NC(=O)c1ccc([N+](=O)[O-])cc1

>  <censoringSign>
=

>  <pIC50>
6.01

$$$$
>  <molecule>
CC(/C=N/Nc1ccc([N+](=O)[O-])cc1)=N\NC(=O)c1ccccc1C

>  <censoringSign>
=

>  <pIC50>
5.22

$$$$
>  <molecule>
CC(/C=N/Nc1ccc([N+](=O)[O-])cc1)=N\NC(=O)c1ccc2c(c1)OCO2

>  <censoringSign>
<

>  <pIC50>
4.92

$$$$
>  <molecule>
CC(/C=N/Nc1ccc([N+](=O)[O-])cc1)=N\NC(=O)c1ccccc1O

>  <censoringSign>
=

>  <pIC50>
5.79

$$$$
>  <molecule>
CC(/C=N/Nc1ccc([N+](=O)[O-])cc1)=N\NC(=O)c1ccc(N(C)C)cc1

>  <censoringSign>
<

>  <pIC50>
4.92

$$$$
>  <molecule>
CC(/C=N/N(C)c1ccc([N+](=O)[O-])cc1)=N\NC(=O)c1ccccc1O

>  <censoringSign>
=

>  <pIC50>
5.51

$$$$
>  <molecule>
CC(/C=N/N(C)c1ccc([N+](=O)[O-])cc1)=N\NC(=O)c1cc([N+](=O)[O-])cc([N+](=O)[O-])c1

>  <censoringSign>
=

>  <pIC50>
5.95

$$$$
>  <molecule>
CC(/C=N/Nc1ccc([N+](=O)[O-])cc1)=N\NC(=O)c1ccc(O)cc1

>  <censoringSign>
=

>  <pIC50>
5.82

$$$$
>  <molecule>
CC(/C=N/Nc1ccc([N+](=O)[O-])cc1)=N\NC(=O)c1ccc(Cl)cc1

>  <censoringSign>
=

>  <pIC50>
5.38

$$$$
>  <molecule>
CC(/C=N/Nc1ccc([N+](=O)[O-])cc1)=N\NC(=O)c1ccccc1N

>  <censoringSign>
=

>  <pIC50>
5.31

$$$$
>  <molecule>
CC(/C=N/Nc1ccc([N+](=O)[O-])cc1)=N\NC(=O)c1cccc(C)c1

>  <censoringSign>
<

>  <pIC50>
4.92

$$$$
>  <molecule>
COc1cc(C(=O)N/N=C(C)/C=N/Nc2ccc([N+](=O)[O-])cc2)ccc1O

>  <censoringSign>
=

>  <pIC50>
5.29

$$$$
>  <molecule>
CC(/C=N/Nc1ccc([N+](=O)[O-])cc1)=N\NC(=O)c1ccc(C(C)(C)C)cc1

>  <censoringSign>
<

>  <pIC50>
4.92

$$$$

###

CC50 at 72 h values, listed per item
- procedureSummary: Cytotoxicity against BALB/c mouse J774 cells assessed as reduction in cell viability after 72 hrs by alamarBlue assay
- Type: cell-based
observedProperty: CC50 at 72 h (µM)

>  <compound>
CC(/C=N/Nc1ccc([N+](=O)[O-])cc1)=N\NC(=O)c1ccc(C(C)(C)C)cc1

>  <observedProperty>
CC50 at 72 h

>  <censoringSign>
>

>  <valueReported>
100

$$$$
>  <compound>
CC(/C=N/N(C)c1ccc([N+](=O)[O-])cc1)=N\NC(=O)c1ccccc1O

>  <observedProperty>
CC50 at 72 h

>  <censoringSign>
=

>  <valueReported>
31.5

$$$$
>  <compound>
CC(/C=N/Nc1ccc([N+](=O)[O-])cc1)=N\NC(=O)c1ccccc1Oc1ccccc1

>  <observedProperty>
CC50 at 72 h

>  <censoringSign>
>

>  <valueReported>
100

$$$$
>  <compound>
CC(/C=N/Nc1ccc([N+](=O)[O-])cc1)=N\NC(=O)c1ccc(Cl)cc1

>  <observedProperty>
CC50 at 72 h

>  <censoringSign>
=

>  <valueReported>
63.9

$$$$
>  <compound>
CC(/C=N/Nc1ccc([N+](=O)[O-])cc1)=N\NC(=O)c1ccccc1N

>  <observedProperty>
CC50 at 72 h

>  <censoringSign>
=

>  <valueReported>
29.8

$$$$
>  <compound>
CC(/C=N/Nc1ccc([N+](=O)[O-])cc1)=N\NC(=O)c1ccccc1I

>  <observedProperty>
CC50 at 72 h

>  <censoringSign>
=

>  <valueReported>
40

$$$$
>  <compound>
CC(/C=N/Nc1ccc([N+](=O)[O-])cc1)=N\NC(=O)c1ccccc1O

>  <observedProperty>
CC50 at 72 h

>  <censoringSign>
=

>  <valueReported>
29.5

$$$$
>  <compound>
COc1ccc(C(=O)N/N=C(C)/C=N/Nc2ccc([N+](=O)[O-])cc2)cc1

>  <observedProperty>
CC50 at 72 h

>  <censoringSign>
>

>  <valueReported>
100

$$$$
>  <compound>
CC(/C=N/Nc1ccc([N+](=O)[O-])cc1)=N\NC(=O)c1ccc2c(c1)OCO2

>  <observedProperty>
CC50 at 72 h

>  <censoringSign>
>

>  <valueReported>
100

$$$$
>  <compound>
CC(/C=N/Nc1ccc([N+](=O)[O-])cc1)=N\NC(=O)c1ccccc1Cl

>  <observedProperty>
CC50 at 72 h

>  <censoringSign>
>

>  <valueReported>
100

$$$$
>  <compound>
CC(/C=N/N(C)c1ccc([N+](=O)[O-])cc1)=N\NC(=O)c1cc([N+](=O)[O-])cc([N+](=O)[O-])c1

>  <observedProperty>
CC50 at 72 h

>  <censoringSign>
=

>  <valueReported>
39

$$$$
>  <compound>
COc1cc(C(=O)N/N=C(C)/C=N/Nc2ccc([N+](=O)[O-])cc2)ccc1O

>  <observedProperty>
CC50 at 72 h

>  <censoringSign>
>

>  <valueReported>
100

$$$$
>  <compound>
CN(C)c1ccc(C(=C2C=CC(=[N+](C)C)C=C2)c2ccc(N(C)C)cc2)cc1 [GENTIAN VIOLET]

>  <observedProperty>
CC50 at 72 h

>  <censoringSign>
=

>  <valueReported>
4.1

$$$$
>  <compound>
CC(/C=N/N(C)c1ccc([N+](=O)[O-])cc1)=N\NC(=O)c1ccc(N)cc1

>  <observedProperty>
CC50 at 72 h

>  <censoringSign>
=

>  <valueReported>
51.7

$$$$
